# measurementTarget: SCRIB PDZ domain 1 (human, UniProt Q14160 728-815)
# Sequence (Q14160 728-815): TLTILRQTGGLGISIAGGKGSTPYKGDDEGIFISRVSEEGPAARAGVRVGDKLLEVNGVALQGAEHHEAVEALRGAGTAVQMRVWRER
# protocolSummary: ELISA
pIC50: −log10 of the molar value. Where no end group is shown, it is not given here.
In this section, each of the binders is paired with its reported pIC50.
observedProperty: pIC50

INSERT INTO results (binder, valuemeasured) VALUES
  ('RQIKIWFQNRRMKWKKRSWFETWV (not fully specified) [designed SCRIB PDZ-binding peptide Π-RSWFETWV (peptide 14)]', 5.66),
  ('KHFRETEV (not fully specified) [peptide 2, C terminus of the HTLV-1 Tax protein]', 5.47);
